These measurements were taken from patent US8822517B2.

Collected inhibition at 1 µM values appear next to each entry.
Biological target: muscarinic M3 receptor (Homo sapiens, UniProt P20309)
Construct: expressed in transfected cells; host or cells: CHO cells
Sequence (P20309 whole entry): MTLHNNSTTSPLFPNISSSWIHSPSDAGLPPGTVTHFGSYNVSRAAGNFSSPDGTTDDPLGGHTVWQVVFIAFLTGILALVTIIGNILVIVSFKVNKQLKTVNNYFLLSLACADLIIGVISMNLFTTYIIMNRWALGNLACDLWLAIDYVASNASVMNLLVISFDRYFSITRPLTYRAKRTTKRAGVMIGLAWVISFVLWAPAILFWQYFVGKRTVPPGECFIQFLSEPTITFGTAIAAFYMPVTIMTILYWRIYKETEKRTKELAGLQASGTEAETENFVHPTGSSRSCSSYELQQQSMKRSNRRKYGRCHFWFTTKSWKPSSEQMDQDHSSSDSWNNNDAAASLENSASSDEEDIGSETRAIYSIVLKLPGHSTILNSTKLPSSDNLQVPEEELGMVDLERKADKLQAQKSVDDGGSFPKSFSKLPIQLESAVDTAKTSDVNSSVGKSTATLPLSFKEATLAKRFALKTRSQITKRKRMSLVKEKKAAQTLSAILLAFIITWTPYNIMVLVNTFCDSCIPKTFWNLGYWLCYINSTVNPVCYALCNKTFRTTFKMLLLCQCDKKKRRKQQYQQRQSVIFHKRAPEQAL
Assay: Binding assay M3 (h), [3H]4-DAMP, CHO cells
Details: read-out: M3 [%]
Procedure: The specific ligand binding to the receptors is defined as the difference between the total binding and the nonspecific binding determined in the presence of an excess of so unlabelled ligand. The specific Ligand binding to the receptor is defined as the difference between total and non-specific binding determined in the presence of an excess of unlabelled ligand. The compounds were tested at a concentration of 1×10^−6 M, and scintillation counting was the method of detection of ligand binding.
Response body: numeric value in %, unit text excluded.

[
  {
    "smiles input": "O=S(=O)(NCCCCN1CCN(c2nsc3ccccc23)CC1)c1ccc2ccccc2c1",
    "inhibition at 1 µM (%)": 17
  },
  {
    "smiles input": "O=S(=O)(NCCCCN1CCN(c2cccc3[nH]ccc23)CC1)c1cnc2ccccn12",
    "inhibition at 1 µM (%)": 66
  },
  {
    "smiles input": "O=S(=O)(NCCN1CCN(c2nsc3ccccc23)CC1)c1ccc2ccccc2c1",
    "inhibition at 1 µM (%)": -2
  },
  {
    "smiles input": "O=S(=O)(NCCCCN1CCN(c2nsc3ccccc23)CC1)c1cccc2scnc12",
    "inhibition at 1 µM (%)": 10
  },
  {
    "smiles input": "O=S(=O)(NCCCCN1CCN(c2noc3ccccc23)CC1)c1ccc(-c2ccccc2)cc1",
    "inhibition at 1 µM (%)": -4
  }
]

Can you share its inhibition at 1 µM? I mean this compound: Cc1cccc(S(=O)(=O)NCCCCN2CCC(c3noc4cc(F)ccc34)CC2)c1
9

Now give it for O=S(=O)(NCCCCN1CCN(c2cccc3[nH]ccc23)CC1)c1cccc(Cl)c1 too.
29

Also check O=c1[nH]c2cccc(N3CCN(CCCCNS(=O)(=O)c4cccc5ccccc45)CC3)c2[nH]1
4

* * *

Listed here are compounds together with their documented inhibition at 1 µM.
Molecular target: UniProt P35367
Sequence (P35367 whole entry): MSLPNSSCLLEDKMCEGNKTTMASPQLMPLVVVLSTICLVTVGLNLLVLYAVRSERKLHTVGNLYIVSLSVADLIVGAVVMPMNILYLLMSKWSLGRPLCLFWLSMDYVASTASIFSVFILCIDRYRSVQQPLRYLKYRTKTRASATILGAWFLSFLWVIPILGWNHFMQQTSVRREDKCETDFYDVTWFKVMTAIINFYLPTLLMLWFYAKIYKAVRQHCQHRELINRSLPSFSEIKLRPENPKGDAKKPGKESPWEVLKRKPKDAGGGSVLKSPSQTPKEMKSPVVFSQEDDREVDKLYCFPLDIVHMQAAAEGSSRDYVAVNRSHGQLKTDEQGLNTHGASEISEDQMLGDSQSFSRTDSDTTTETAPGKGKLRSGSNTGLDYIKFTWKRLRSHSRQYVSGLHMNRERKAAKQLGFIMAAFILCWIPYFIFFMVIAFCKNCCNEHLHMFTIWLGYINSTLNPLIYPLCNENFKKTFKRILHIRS
Experiment: Binding assay H1 (h), [3H]pyrilamine, HEK-293 cells
Parameters: expressed in transfected cells; host or cells: HEK-293 cells
Details: read-out: H1 [%]
The figure you give is taken to be in %; do not add the unit.

Reference set (5 entries):
[
  {
    "smiles input": "O=S(=O)(NCCCCN1CCN(c2nsc3ccccc23)CC1)c1cc2ccccc2s1",
    "inhibition at 1 µM / %": 98
  },
  {
    "smiles input": "O=S(=O)(NCCCN1CCC(c2noc3cc(F)ccc23)CC1)c1ccc2ccccc2c1",
    "inhibition at 1 µM / %": 90
  },
  {
    "smiles input": "O=S(=O)(NCCCCN1CCC(c2noc3cc(F)ccc23)CC1)c1cc2ccc(Cl)cc2s1",
    "inhibition at 1 µM / %": 93
  },
  {
    "smiles input": "O=c1[nH]c2cccc(N3CCN(CCCNS(=O)(=O)c4cccc5ccccc45)CC3)c2[nH]1",
    "inhibition at 1 µM / %": 16
  },
  {
    "smiles input": "O=S(=O)(NCCCCN1CCC(c2noc3cc(F)ccc23)CC1)c1ccc(F)c(F)c1",
    "inhibition at 1 µM / %": 95
  }
]

Item: O=S(=O)(NCCN1CCC(c2noc3cc(F)ccc23)CC1)c1ccc2ccccc2c1 Test system: UniProt P35367 Read-out: inhibition at 1 µM Value: ?
56

Same question, Cc1c(S(=O)(=O)NCCCN2CCN(c3nsc4ccccc34)CC2)sc2ccc(F)cc12 this time
99

Do the same for O=S(=O)(NCCCCN1CCN(c2cccc3[nH]ccc23)CC1)c1cccc(Cl)c1 please
60

* * *

Target: UniProt P50406
Assay: Binding assay 5-HT6 (h), [3H]LSD, CHO cells
Parameters: expressed in transfected cells; host or cells: CHO cells
Details: read-out: 5-HT6
Documented inhibition at 1 µM across a set of molecules
Report the value in % with no unit label.

Example results:
[
  {
    "smiles input": "Cc1[nH]c2ccc(Cl)cc2c1C1=CCN(CCCCNS(=O)(=O)c2cccc3ccccc23)CC1",
    "target of assay": "UniProt P50406",
    "output unit": "%",
    "inhibition at 1 µM": 98
  },
  {
    "smiles input": "N#Cc1cccc(S(=O)(=O)NCCCCN2CCN(c3nsc4ccccc34)CC2)c1",
    "target of assay": "UniProt P50406",
    "output unit": "%",
    "inhibition at 1 µM": 82
  },
  {
    "smiles input": "O=S(=O)(NCCCCN1CCC(c2noc3cc(F)ccc23)CC1)c1ccc2c(c1)CCO2",
    "target of assay": "UniProt P50406",
    "output unit": "%",
    "inhibition at 1 µM": 78
  }
]

Could you now look at the following molecule, please?
Please report the recorded inhibition at 1 µM for O=S(=O)(NCCCCN1CCN(c2cccc3[nH]ccc23)CC1)c1cccc(Cl)c1 .
74

* * *

Molecular target: serotoninergic 5-HT6 receptor (Homo sapiens, UniProt P50406)
Sequence (P50406 whole entry): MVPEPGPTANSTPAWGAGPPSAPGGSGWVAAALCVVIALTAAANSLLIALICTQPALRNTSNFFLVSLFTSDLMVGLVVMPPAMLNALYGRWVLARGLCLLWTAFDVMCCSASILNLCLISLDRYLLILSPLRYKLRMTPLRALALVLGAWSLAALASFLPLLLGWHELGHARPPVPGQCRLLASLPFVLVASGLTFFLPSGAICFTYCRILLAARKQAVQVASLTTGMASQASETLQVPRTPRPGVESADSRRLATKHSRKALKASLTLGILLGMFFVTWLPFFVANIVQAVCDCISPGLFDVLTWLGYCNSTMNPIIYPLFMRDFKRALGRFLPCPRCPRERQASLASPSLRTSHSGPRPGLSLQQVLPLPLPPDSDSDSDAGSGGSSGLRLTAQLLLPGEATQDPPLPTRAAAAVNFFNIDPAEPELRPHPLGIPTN
Experiment: Binding assay 5-HT6 (h), [3H]LSD, CHO cells
Design: expressed in transfected cells; host or cells: CHO cells
Details: read-out: 5-HT6
Below, each of the molecules is paired with its reported inhibition at 1 µM value.
The answer is to be given in %; state only the numeric part.

Recorded results for 5 molecules are shown here.
[
  {
    "smiles input": "Cc1[nH]c2ccc(Cl)cc2c1C1=CCN(CCCNS(=O)(=O)c2cccc(Cl)c2)CC1",
    "target of assay": "serotoninergic 5-HT6 receptor (Homo sapiens, UniProt P50406)",
    "reported result": 95
  },
  {
    "smiles input": "O=S(=O)(NCCCCN1CCC(c2noc3cc(F)ccc23)CC1)c1ccc(Cl)s1",
    "target of assay": "serotoninergic 5-HT6 receptor (Homo sapiens, UniProt P50406)",
    "reported result": 83
  },
  {
    "smiles input": "O=S(=O)(NCCCCN1CCC(c2noc3cc(F)ccc23)CC1)c1ccc(F)c(Cl)c1",
    "target of assay": "serotoninergic 5-HT6 receptor (Homo sapiens, UniProt P50406)",
    "reported result": 84
  },
  {
    "smiles input": "O=S(=O)(NCCCN1CCN(c2nsc3ccccc23)CC1)c1ccc(F)cc1",
    "target of assay": "serotoninergic 5-HT6 receptor (Homo sapiens, UniProt P50406)",
    "reported result": 98
  },
  {
    "smiles input": "O=S(=O)(NCCCCN1CCC(c2noc3cc(F)ccc23)CC1)c1ccsc1",
    "target of assay": "serotoninergic 5-HT6 receptor (Homo sapiens, UniProt P50406)",
    "reported result": 76
  }
]

# lookup: inhibition at 1 µM of O=S(=O)(NCCCCN1CCN(c2noc3ccccc23)CC1)c1ccc(Cl)cc1
74

Now consider Cc1cccc(S(=O)(=O)NCCCN2CCN(c3nsc4ccccc34)CC2)c1 .
98

* * *

Biological target: dopaminergic D3 receptor (Homo sapiens)
Sequence (P35462 whole entry): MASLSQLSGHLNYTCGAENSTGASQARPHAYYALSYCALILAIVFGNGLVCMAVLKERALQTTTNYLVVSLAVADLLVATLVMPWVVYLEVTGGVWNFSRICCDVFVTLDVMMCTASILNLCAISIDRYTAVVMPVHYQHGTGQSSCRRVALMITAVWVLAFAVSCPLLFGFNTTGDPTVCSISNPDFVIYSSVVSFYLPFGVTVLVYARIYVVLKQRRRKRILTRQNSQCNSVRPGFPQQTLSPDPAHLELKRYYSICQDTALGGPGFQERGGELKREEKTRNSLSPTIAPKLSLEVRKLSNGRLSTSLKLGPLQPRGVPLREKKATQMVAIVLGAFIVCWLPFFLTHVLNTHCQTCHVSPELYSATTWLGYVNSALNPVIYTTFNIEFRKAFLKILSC
Assay: Binding assay D3 (h), [3H]methyl-spiperone, CHO cells
Set-up: expressed in transfected cells; host or cells: CHO cells
Conditions: read-out: D3 [%]
Measured inhibition at 1 µM, listed per entry.
Answer with a number only, understood to be in %.

Query (compound): O=S(=O)(NCCCCN1CCC(c2noc3cc(F)ccc23)CC1)c1csc2ccccc12 [Compound 313] ; field requested: inhibition at 1 µM
99

Next compound up: N#Cc1cccc(S(=O)(=O)NCCCN2CCN(c3nsc4ccccc34)CC2)c1 [Compound 74]
92

Try this compound too: O=S(=O)(NCCCCN1CCN(c2nsc3ccccc23)CC1)c1ccc2cc(Cl)ccc2c1 [Compound 61]
96

* * *

Target: dopaminergic D2 receptor (Homo sapiens, UniProt P14416)
Sequence (P14416 1-414 isoform P14416-2): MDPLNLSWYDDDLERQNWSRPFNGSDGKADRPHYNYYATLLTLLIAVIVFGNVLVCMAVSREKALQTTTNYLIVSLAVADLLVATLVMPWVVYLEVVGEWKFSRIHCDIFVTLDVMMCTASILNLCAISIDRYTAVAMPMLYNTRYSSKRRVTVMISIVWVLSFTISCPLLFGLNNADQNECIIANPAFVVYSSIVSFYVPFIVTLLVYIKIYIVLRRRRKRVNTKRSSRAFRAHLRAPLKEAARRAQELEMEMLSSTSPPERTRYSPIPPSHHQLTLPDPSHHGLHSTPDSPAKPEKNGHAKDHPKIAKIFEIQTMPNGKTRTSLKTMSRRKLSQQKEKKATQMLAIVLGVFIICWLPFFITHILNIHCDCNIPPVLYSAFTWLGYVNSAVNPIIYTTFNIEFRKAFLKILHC
Experiment: Binding assay D2S (h), [3H]methyl-spiperone, HEK-293 cells
Set-up: expressed in transfected cells; host or cells: HEK-293 cells
Conditions: read-out: D2 [%]
Procedure: The specific ligand binding to the receptors is defined as the difference between the total binding and the nonspecific binding determined in the presence of an excess of so unlabelled ligand. The specific Ligand binding to the receptor is defined as the difference between total and non-specific binding determined in the presence of an excess of unlabelled ligand. The compounds were tested at a concentration of 1×10^−6 M, and scintillation counting was the method of detection of ligand binding.
inhibition at 1 µM listing for selected molecules.
State the answer as a number, implicitly in %.

Recorded results for 5 molecules are shown here.
[
  {
    "smiles input": "O=c1[nH]c2ccc(S(=O)(=O)NCCCCN3CCN(c4cccc5c4OCCO5)CC3)cc2o1",
    "target of assay": "dopaminergic D2 receptor (Homo sapiens, UniProt P14416)",
    "reported result": 85
  },
  {
    "smiles input": "O=c1[nH]c2cccc(N3CCN(CCCCNS(=O)(=O)c4cccc5ccccc45)CC3)c2[nH]1",
    "target of assay": "dopaminergic D2 receptor (Homo sapiens, UniProt P14416)",
    "reported result": 97
  },
  {
    "smiles input": "O=S(=O)(NCCCN1CCC(c2noc3cc(F)ccc23)CC1)c1ccc(Cl)c(Cl)c1",
    "target of assay": "dopaminergic D2 receptor (Homo sapiens, UniProt P14416)",
    "reported result": 109
  },
  {
    "smiles input": "COc1cccc(S(=O)(=O)NCCCCN2CCC(c3noc4cc(F)ccc34)CC2)c1",
    "target of assay": "dopaminergic D2 receptor (Homo sapiens, UniProt P14416)",
    "reported result": 96
  },
  {
    "smiles input": "O=S(=O)(NCCCN1CCN(c2nsc3ccccc23)CC1)c1cccc(Br)c1",
    "target of assay": "dopaminergic D2 receptor (Homo sapiens, UniProt P14416)",
    "reported result": 99
  }
]

GET /values?readout=inhibition at 1 µM&item= O=S(=O)(NCCCN1CCN(c2nsc3ccccc23)CC1)c1cccc2scnc12
100

Same for O=S(=O)(NCCCCN1CCN(c2nsc3ccccc23)CC1)c1ccc(-c2ccccc2)cc1
62

O=S(=O)(NCCN1CCN(c2nsc3ccccc23)CC1)c1ccc2ccccc2c1 ?
94

One more molecule: O=S(=O)(NCCCN1CCC(c2noc3cc(F)ccc23)CC1)c1ccc(Br)cc1
108

Can you check O=C1COc2c(cccc2N2CCN(CCCCNS(=O)(=O)c3cccc(F)c3)CC2)N1 next?
81

What do you have for O=S(=O)(NCCCN1CCC(c2noc3cc(F)ccc23)CC1)c1csc2ccccc12 ?
100

Input O=S(=O)(NCCCCN1CCC(c2noc3cc(F)ccc23)CC1)c1cccc(Cl)c1
107

Can you check O=S(=O)(NCCCN1CCC(c2noc3cc(F)ccc23)CC1)c1ccc2c(c1)OCO2 next?
83

Same question for O=S(=O)(NCCCN1CCC(c2noc3cc(F)ccc23)CC1)c1ccc2c(c1)CCO2 please.
102

Then this molecule: O=S(=O)(NCCCCN1CCN(c2cccc3c2OCCO3)CC1)c1ccc(-c2ccccc2)cc1
68

Entry to check: O=S(=O)(NCCCCN1CCC(c2noc3cc(F)ccc23)CC1)c1ccc(C(F)(F)F)cc1
90

Another molecule to check: O=S(=O)(NCCCCN1CCN(c2cccc3c2OCCO3)CC1)c1cccc(Br)c1
76
